test: In vivo pharmacokinetics of SD rat; conditions: SD male rats, intravenous injection 10 mg/kg, plasma, X ± SD
Result type: Half lives t1/2 (min)
Dear colleague, please return just the value in min, with no unit written.

Observe how each entry below is paired with its result.
>  <Molecule>
C[C@@H](O)[C@H]1C(=O)N2C(C(=O)O)=C(S[C@@H]3CN[C@H](C(=O)N(C)C)C3)[C@H](C)[C@H]12 [Meropenem, reference compound]

>  <Result type>
Half lives t1/2

>  <Unit string>
min

>  <Readout number>
6.6

$$$$
>  <Molecule>
C[C@@H](O)[C@H]1C(=O)N2C(C(=O)O)=C(S[C@@H]3CN[C@H](C(=O)NCc4ccc(CC(=O)O)o4)C3)[C@H](C)[C@H]12

>  <Result type>
Half lives t1/2

>  <Unit string>
min

>  <Readout number>
46.8

$$$$
>  <Molecule>
C[C@@H](O)[C@H]1C(=O)N2C(C(=O)O)=C(S[C@@H]3CN[C@H](C(=O)NCc4cc(C(=O)O)co4)C3)[C@H](C)[C@H]12

>  <Result type>
Half lives t1/2

>  <Unit string>
min

>  <Readout number>
19.8

$$$$
>  <Molecule>
C[C@@H](O)[C@H]1C(=O)N2C(C(=O)O)=C(S[C@@H]3CN[C@H](C(=O)NCc4ccco4)C3)[C@H](C)[C@H]12

>  <Result type>
Half lives t1/2

>  <Unit string>
min

>  <Readout number>
21

$$$$

Record summary for C[C@@H](O)[C@H]1C(=O)N2C(C(=O)O)=C(S[C@@H]3CN[C@H](C(=O)NCc4ccc(S(N)(=O)=O)o4)C3)[C@H](C)[C@H]12 : reported Half lives t1/2 = 41.4

Half lives t1/2 reading for C[C@@H](O)[C@H]1C(=O)N2C(C(=O)O)=C(S[C@@H]3CN[C@H](C(=O)NCc4ccc(C(=O)O)o4)C3)[C@H](C)[C@H]12 : 43.2

----------
Examples of molecules with documented MIC90 follow.
system: methicillin-resistant Staphylococcus aureus (MRSA); test: In vitro antimicrobial activity, agar dilution method; assay type: cell-based; conditions: MRSA clinical isolates
Give just the number in µg/mL; leave the unit off.

Worked examples, 5 molecules total:
>  <Molecule>
C[C@@H](O)[C@H]1C(=O)N2C(C(=O)O)=C(S[C@@H]3CN[C@H](C(=O)NCc4cc(C(=O)O)co4)C3)[C@H](C)[C@H]12

>  <MIC90, µg/mL>
32

$$$$
>  <Molecule>
C[C@@H](O)[C@H]1C(=O)N2C(C(=O)O)=C(S[C@@H]3CN[C@H](C(=O)NCc4ccc(S(N)(=O)=O)o4)C3)[C@H](C)[C@H]12

>  <MIC90, µg/mL>
64

$$$$
>  <Molecule>
C[C@@H](O)[C@H]1C(=O)N2C(C(=O)O)=C(S[C@@H]3CN[C@H](C(=O)NCc4ccc(C(=O)O)o4)C3)[C@H](C)[C@H]12

>  <MIC90, µg/mL>
64

$$$$
>  <Molecule>
C[C@@H](O)[C@H]1C(=O)N2C(C(=O)O)=C(S[C@@H]3CN[C@H](C(=O)NCc4ccc(CC(=O)O)o4)C3)[C@H](C)[C@H]12

>  <MIC90, µg/mL>
64

$$$$
>  <Molecule>
C[C@@H](O)[C@H]1C(=O)N2C(C(=O)O)=C(S[C@@H]3CN[C@H](C(=O)N(C)C)C3)[C@H](C)[C@H]12 [Meropenem, reference compound]

>  <MIC90, µg/mL>
64

$$$$

Now look at this entry.
Record C[C@@H](O)[C@H]1C(=O)N2C(C(=O)O)=C(S[C@@H]3CN[C@H](C(=O)NCc4ccco4)C3)[C@H](C)[C@H]12 . Reported MIC90: 32
